The measured values listed here are drawn from the OPERA property sets (Mansouri et al. 2018).

Mark criterion not met for logP values under 2, and criterion met for everything at or above.

Examples from the recorded data:
Compound	Label
CCC(C)c1cccc(C(C)CC)c1O (stereo not given)	criterion met
CCN(CC)S(=O)(=O)c1ccc(OC)c(N)c1	criterion not met
OCCCCl	criterion not met
CCCC(N)Cc1ccccc1 (stereo not given)	criterion met
CC12CCC(=O)C=C1CCC1C2C(O)CC2(C)C1CCC2(O)C(=O)COC1OC(CO)C(O)C(O)C1O (stereo not given)	criterion not met
CCCc1nc2cccc(C)n2c(=O)c1CC	criterion met
CNC(=O)Oc1ccccc1C#N	criterion not met
c1cnn(C23CC4CC(CC(C4)C2)C3)c1	criterion met
CCN(CC)N=Nc1ccc([N+](=O)[O-])cc1	criterion met
Clc1cc2ccccc2cc1Cl	criterion met

Test whether the compound CP(C)c1ccccc1 records logP of 2 or higher. criterion met

###

Endpoint Label: logP
API note: the answer field is a bare number with no unit suffix.

Molecule	logP
C[C@]12CCC(=O)C=C1CC[C@@H]1[C@@H]2C(=O)C[C@@]2(C)[C@H]1CC[C@]2(O)C(=O)CO	1.47
O=C1C(Cl)=C(Nc2ccccc2)C(=O)c2ccccc21	4.22
Cc1ccc(-c2cc3ccccn3c2)cc1	4.96
CCNc1ccccc1	2.16
O=C(O)c1cc([N+](=O)[O-])c(Cl)c([N+](=O)[O-])c1	2.5

Here's the next entry for you.
Record NCCO , field logP: -1.31

###

Lab note - cut at 2 for logP: met if strictly below, not met if not.

Examples from the recorded data:
Compound	Label
c1ccc(Sc2cccnc2)cc1	not met
CCC(C)NC(=O)C(=Cc1ccccc1)SC (stereo unspecified)	not met
O=C(O)C=CC=Cc1ccccc1	not met
COC(COC(N)=O)C1=C(N2CC2)C(=O)C(C)=C(N2CC2)C1=O (stereo unspecified)	met
CCCCCCCOc1ccc(NC(=O)OCCN2CCCCC2)cc1	not met
CC(=O)OC1(C(=O)CO)CCC2C3CCC4=CC(=O)CCC4(C)C3C(=O)CC21C (stereo unspecified)	not met
Clc1c(Cl)c(Cl)c2n[nH]nc2c1Cl	not met
c1nnnn1C12CC3CC(CC(C3)C1)C2	not met
O=C(O)CCCl	met
CCCCOC(=O)n1cnc(CC(NC(=O)C2CCC(=O)N2)C(=O)N2CCCC2C(N)=O)c1 (stereo unspecified)	met

Hi there! Is logP for COC=O below 2, do you know? met

Hi there! Is logP for ClCCOCCCl below 2, do you know? met

Hi there! Is logP for CC(=O)c1c[nH]c2ccccc12 below 2, do you know? not met

Hi there! Is logP for O=[N+]([O-])c1cccc(Cl)c1 below 2, do you know? not met

Hi there! Is logP for CC1(C)S[C@@H]2[C@H](NC(=O)C(C(=O)Oc3ccc4c(c3)CCC4)c3ccccc3)C(=O)N2[C@H]1C(=O)O (stereo partly specified) below 2, do you know? not met

Hi there! Is logP for Nc1cccc2cc3ccccc3nc12 below 2, do you know? not met

Hi there! Is logP for CCOC(=O)c1ccccc1N below 2, do you know? not met

###

Peptide text beside a SMILES is read from it.
Endpoint Label: logP
API note: the answer field is a bare number with no unit suffix.

Compound	logP
O=C(O)COc1ccc(I)cc1	2.69
Brc1ccsc1Br	3.53
COc1ccc(CC#N)cc1OC	1.15
CNCC(c1ccccc1)C(C)C (stereo not given)	3.12
CCCc1ccc([N+](=O)[O-])cc1	3.45
CC(C)Oc1cc(-n2nc(C(C)(C)C)oc2=O)c(Cl)cc1Cl	4.8
Cn1nnc2ccccc2c1=O	0.84
C1CCCC1	3

Record COc1ccccc1 , field logP: 2.11

Record Cc1cc(CC(=O)O)ccc1OCc1ccccc1 , field logP: 3.37

Record CC(C)(O)C(Cl)(Cl)Cl , field logP: 2.03

Record CNP(=O)(OC)Oc1ccc(C(C)(C)C)cc1Cl (stereo not given) , field logP: 3.42

Record CCC(C)C(NC(=O)C(CCC(=O)O)NC(C)=O)C(=O)NC(Cc1ccccc1)C(N)=O (stereo not drawn) (Ac-Glu-Ile-Phe-NH2; configuration not given here) , field logP: 0.43

Record NS(=O)(=O)c1cc2c(cc1C(F)(F)F)NCNS2(=O)=O , field logP: 0.36

Record C#C[C@]1(O)CC[C@H]2[C@@H]3CCC4=CC(=O)CC[C@@H]4[C@H]3CC[C@@]21C , field logP: 2.97
